// note: IC50 values for Prostaglandin G/H synthase 1 (Ovis aries) were reported in different studies
Target: Prostaglandin G/H synthase 1 (Ovis aries)
Sequence (P05979 whole entry): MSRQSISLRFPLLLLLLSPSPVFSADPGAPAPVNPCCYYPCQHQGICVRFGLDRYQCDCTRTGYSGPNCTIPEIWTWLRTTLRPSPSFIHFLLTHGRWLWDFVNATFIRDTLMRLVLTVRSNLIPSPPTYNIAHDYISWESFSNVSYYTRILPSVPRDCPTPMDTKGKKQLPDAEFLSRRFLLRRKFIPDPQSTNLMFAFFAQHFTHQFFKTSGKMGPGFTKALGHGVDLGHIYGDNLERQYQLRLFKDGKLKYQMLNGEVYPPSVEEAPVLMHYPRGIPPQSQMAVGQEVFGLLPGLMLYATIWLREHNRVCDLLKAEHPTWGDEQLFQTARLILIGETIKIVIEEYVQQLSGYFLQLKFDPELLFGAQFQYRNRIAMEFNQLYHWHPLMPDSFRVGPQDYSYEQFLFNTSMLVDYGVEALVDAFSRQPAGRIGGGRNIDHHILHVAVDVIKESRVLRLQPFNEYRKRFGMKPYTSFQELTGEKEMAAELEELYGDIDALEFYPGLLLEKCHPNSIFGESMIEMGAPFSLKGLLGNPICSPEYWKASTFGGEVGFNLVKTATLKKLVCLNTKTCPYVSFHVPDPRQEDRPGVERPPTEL
I'd appreciate it if you marked entries Met when IC50 is lower than 7 µM and Not met when it is not.

Is IC50 of CS(=O)(=O)c1ccc(C2=NN(c3ccc(S(N)(=O)=O)cc3)C(c3cccs3)C2)cc1 (centres undefined) strictly below 7 µM?
Met

Is IC50 of CS(=O)(=O)c1ccc(/C=C(/C(=O)OCO/N=[N+](/[O-])N2CCCC2)c2cccc(Br)c2)cc1 strictly below 7 µM?
Met

Is IC50 of CC(C)Cc1ccc(C(C)C(=O)OC(CO[N+](=O)[O-])CO[N+](=O)[O-])cc1 (centres undefined) strictly below 7 µM?
Not met

Is IC50 of CONC1=NC(=O)/C(=C/c2cc(C(C)(C)C)c(O)c(C(C)(C)C)c2)O1 strictly below 7 µM?
Not met

Is IC50 of O=C1CSC2SC(/N=C/c3ccc(Br)cc3)=NN12 (centres undefined) strictly below 7 µM?
Not met

Is IC50 of CSc1nc2ccccc2n1-c1csc2nc(-c3ccccc3)cn12 strictly below 7 µM?
Met

Is IC50 of C=CCC1=C[C@@]2(OC)C(=CC1=O)O[C@H](c1ccc(OC)c(OC)c1)[C@H]2C strictly below 7 µM?
Not met

Is IC50 of COc1ccc2c(c1)c(CC(=O)NC[C@@H](C)O)c(C)n2C(=O)c1ccc(Cl)cc1 strictly below 7 µM?
Not met

Is IC50 of CC(Oc1cc(=O)oc2ccccc12)C(=O)N1CCOCC1 (racemic) strictly below 7 µM?
Met

----------
Biological target: Prostaglandin G/H synthase 1 (Ovis aries, UniProt P05979)
Sequence (P05979 whole entry): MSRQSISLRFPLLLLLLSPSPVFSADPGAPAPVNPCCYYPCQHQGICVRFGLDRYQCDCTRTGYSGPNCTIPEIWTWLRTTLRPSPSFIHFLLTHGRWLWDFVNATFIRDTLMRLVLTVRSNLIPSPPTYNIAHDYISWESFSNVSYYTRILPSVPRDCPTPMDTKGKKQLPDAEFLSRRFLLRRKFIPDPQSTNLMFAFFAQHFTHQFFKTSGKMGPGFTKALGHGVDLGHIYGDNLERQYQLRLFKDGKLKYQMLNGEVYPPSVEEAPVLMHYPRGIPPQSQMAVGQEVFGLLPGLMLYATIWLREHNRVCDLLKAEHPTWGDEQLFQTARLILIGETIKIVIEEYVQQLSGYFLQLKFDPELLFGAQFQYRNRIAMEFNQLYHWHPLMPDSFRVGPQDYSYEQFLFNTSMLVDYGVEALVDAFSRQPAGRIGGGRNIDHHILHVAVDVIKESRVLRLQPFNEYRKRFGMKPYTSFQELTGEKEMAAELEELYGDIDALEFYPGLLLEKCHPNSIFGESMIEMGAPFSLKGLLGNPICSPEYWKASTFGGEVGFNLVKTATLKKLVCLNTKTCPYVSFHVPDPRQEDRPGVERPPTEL
// note: IC50 values for Prostaglandin G/H synthase 1 (Ovis aries, UniProt P05979) were reported in different studies

Return reported IC50; argument: CCCC/C(=C\c1cc(OCc2cc3ccccc3s2)ccc1OCc1ccc(C(F)(F)F)cc1)C(=O)O
> 10 µM

Return reported IC50; argument: COc1ccc2c(c1)c(CC(=O)OC(CO[N+](=O)[O-])CO[N+](=O)[O-])c(C)n2C(=O)c1ccc(Cl)cc1
> 100 µM

Return reported IC50; argument: CSc1nc2ccccc2n1-c1csc(NC/C(C)=N/N=c2\scc(-c3ccccc3)n2-c2ccccc2)n1
12.4 µM

Return reported IC50; argument: CC(=O)Oc1ccc(-c2cc(C(F)(F)F)nn2-c2ccc(S(N)(=O)=O)cc2)cc1
> 100 µM

Return reported IC50; argument: CC(=O)Oc1cccc(-c2cc(C(F)(F)F)nn2-c2ccc(S(N)(=O)=O)cc2)c1
> 100 µM

Return reported IC50; argument: CS(=O)(=O)c1ccc(-c2cc(C(=O)O)c3ccc4c(c3n2)CCCC4)cc1
22.1 µM

Return reported IC50; argument: Nc1ccc(S(=O)(=O)Nc2ccc(Cl)cc2)cc1
12 µM

Return reported IC50; argument: Cc1ccc(C2=C(c3ccc(Oc4ccc(F)cc4)cc3)C(=O)OC2)cc1
> 25 µM

Return reported IC50; argument: Nc1cccc2c(C3CC(C(F)(F)F)=NN3c3ccc(S(N)(=O)=O)cc3)c[nH]c12 (stereo not given)
> 100 µM

Return reported IC50; argument: c1ccc(-n2nccc2-c2ccc(Nc3nc(N4CCOCC4)nc(N4CCOCC4)n3)cc2)cc1
4.99 µM

Return reported IC50; argument: S=c1[nH]nc(/N=C/c2ccc(Br)cc2)s1
> 50 µM

Return reported IC50; argument: c1ccc(-c2nn(-c3ccccc3)cc2-c2nnc(-c3ccncc3)o2)cc1
> 100 µM

Return reported IC50; argument: Fc1ccc(-c2nc3n(c2-c2ccncc2)CCS3)cc1
5.4 µM

Return reported IC50; argument: COc1c(O)ccc2c1oc1ccccc12
29 µM

Return reported IC50; argument: CS(=O)(=O)c1ccc(C2=NN(c3ccc(C(=O)O)cc3)C(c3cccs3)C2)cc1 (stereo not given)
4.7 µM

Return reported IC50; argument: Nc1cccc2[nH]cc(C3CC(C(F)(F)F)=NN3c3ccc(S(N)(=O)=O)cc3)c12 (stereo not given)
> 100 µM

Return reported IC50; argument: COc1ccc(-n2nnnc2-c2ccc(S(C)(=O)=O)cc2)cc1
420 µM

Return reported IC50; argument: CCCCC/C=C\C/C=C\C/C=C\C/C=C\CCCC(=O)Nc1ccc(-c2ccc(NC(=O)Cc3onc(-c4ccc(OC)cc4)c3-c3ccc(OC)cc3)cc2)cc1
17 µM

Return reported IC50; argument: CCOc1cc(N)n2nc(Nc3cc(OC)ccn3)c(C#N)c2n1
8.5 µM

Return reported IC50; argument: CC(=O)Nc1ccc(S(=O)(=O)Nn2c(C)nc3ccccc3c2=O)cc1
22.8 µM

----------
// note: IC50 values for Prostaglandin G/H synthase 1 (Ovis aries) were reported in different studies
Target: Prostaglandin G/H synthase 1 (Ovis aries)
Sequence (P05979 whole entry): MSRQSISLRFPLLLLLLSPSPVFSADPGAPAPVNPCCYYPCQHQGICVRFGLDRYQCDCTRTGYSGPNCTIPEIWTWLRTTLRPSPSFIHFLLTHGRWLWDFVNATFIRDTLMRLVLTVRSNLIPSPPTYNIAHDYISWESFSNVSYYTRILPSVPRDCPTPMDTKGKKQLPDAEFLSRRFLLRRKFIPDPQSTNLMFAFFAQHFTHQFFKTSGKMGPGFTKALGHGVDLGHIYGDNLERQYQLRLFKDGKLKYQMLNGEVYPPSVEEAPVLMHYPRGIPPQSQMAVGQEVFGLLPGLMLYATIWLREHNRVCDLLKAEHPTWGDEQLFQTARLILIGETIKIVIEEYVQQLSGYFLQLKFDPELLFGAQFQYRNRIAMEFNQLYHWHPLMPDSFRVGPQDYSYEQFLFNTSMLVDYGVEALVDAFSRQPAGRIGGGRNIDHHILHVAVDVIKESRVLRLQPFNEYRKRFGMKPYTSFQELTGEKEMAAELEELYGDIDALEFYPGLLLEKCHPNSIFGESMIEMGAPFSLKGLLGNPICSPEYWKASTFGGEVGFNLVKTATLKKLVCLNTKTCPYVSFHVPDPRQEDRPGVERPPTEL
Dear colleague, please return just the value in µM, with no unit written.

Return reported IC50; argument: CC(C)(C)c1cc(-c2nnc(SCCN)s2)cc(C(C)(C)C)c1O
36

Return reported IC50; argument: CSc1nnc(-c2ccc(S(C)(=O)=O)cc2)c(-c2ccc(C)cc2)n1
52.4

Return reported IC50; argument: Cc1ccc(Cl)c(Nc2ccccc2C(=O)NNCc2ccccc2)c1Cl
5

Return reported IC50; argument: CNC(=O)c1nc(-c2cc(OC)c(OC)c(OC)c2)n(-c2ccc(OC)cc2)n1
45.9
